These measurements were taken from ChEMBL document CHEMBL1123120.

target: Muscarinic acetylcholine receptor (Rattus norvegicus) (UniProt P08482+P08483+P08485+P08911+P10980); experiment: Muscarinic acetylcholine receptor binding affinity in rat brain homogenate by [3H]quinuclidinylbenzilate displacement compared to disopyramide.; format: tissue-based
ASSAY_METRIC: Muscarinic receptor affinity

- COMPOUND: "CCC1NC(=O)C(CCN(C(C)C)C(C)C)(c2ccccc2)C2CCCCN12 (configuration not stated)"
  ASSAY_METRIC: "Muscarinic receptor affinity"
  RESULT_OPERATOR: "="
  TEST_VALUE: 0.0909
- COMPOUND: "CCC1=NC(=O)C(CCN(C(C)C)C(C)C)(c2ccccc2)C2CCCCN12 (configuration not stated)"
  ASSAY_METRIC: "Muscarinic receptor affinity"
  RESULT_OPERATOR: "="
  TEST_VALUE: 0.0625
- COMPOUND: "CC(C)N(CCC(C(N)=O)(c1ccccc1)c1ccccn1)C(C)C (configuration not stated) [DISOPYRAMIDE]"
  ASSAY_METRIC: "Muscarinic receptor affinity"
  RESULT_OPERATOR: "="
  TEST_VALUE: 1
- COMPOUND: "CC(C)N(CCC1(c2ccccc2)C(=O)NC(c2ccccc2)N2CCCCC21)C(C)C (configuration not stated)"
  ASSAY_METRIC: "Muscarinic receptor affinity"
  RESULT_OPERATOR: "="
  TEST_VALUE: 0.0434
- COMPOUND: "CC(C)N(CCC1(c2ccc(-c3ccccc3)cc2)C(=O)NCN2CCCCC21)C(C)C (configuration not stated)"
  ASSAY_METRIC: "Muscarinic receptor affinity"
  RESULT_OPERATOR: "="
  TEST_VALUE: 0.0625
- COMPOUND: "CC(C)N(CCC1(c2ccccc2)C(=O)NCN2CCCCC21)C(C)C (configuration not stated)"
  ASSAY_METRIC: "Muscarinic receptor affinity"
  RESULT_OPERATOR: "="
  TEST_VALUE: 0.0769
- COMPOUND: "CC(C)N(CC[C@]1(c2ccccc2)C(=O)N[C@@H](C)N2CCCC[C@@H]21)C(C)C"
  ASSAY_METRIC: "Muscarinic receptor affinity"
  RESULT_OPERATOR: "="
  TEST_VALUE: 0.0434
- COMPOUND: "CC(C)N(CCC1(c2ccc(-c3ccccc3)cc2)C(=O)N=CN2CCCCC21)C(C)C (configuration not stated)"
  ASSAY_METRIC: "Muscarinic receptor affinity"
  RESULT_OPERATOR: "="
  TEST_VALUE: 0.02
- COMPOUND: "CC(C)N(CCC1(c2ccccc2)C(=O)N=C(c2ccccc2)N2CCCCC21)C(C)C (configuration not stated)"
  ASSAY_METRIC: "Muscarinic receptor affinity"
  RESULT_OPERATOR: "="
  TEST_VALUE: 0.25
- COMPOUND: "CC(C)N(CCC1(c2ccccc2Cl)C(=O)N=CN2CCCCC21)C(C)C (configuration not stated)"
  ASSAY_METRIC: "Muscarinic receptor affinity"
  RESULT_OPERATOR: "="
  TEST_VALUE: 0.0125
- COMPOUND: "CC(C)N(CCC1(c2ccccc2Cl)C(=O)NCN2CCCCC21)C(C)C (configuration not stated)"
  ASSAY_METRIC: "Muscarinic receptor affinity"
  RESULT_OPERATOR: "<"
  TEST_VALUE: 0.01
- COMPOUND: "CC(C)N(CCC1(c2ccccc2)C(=O)NC(C)N2CCCCC21)C(C)C (configuration not stated)"
  ASSAY_METRIC: "Muscarinic receptor affinity"
  RESULT_OPERATOR: "<"
  TEST_VALUE: 0.05
